# assay procedure: yeast display, Sf9 membrane polyspecificity reagent, FACS + sequencing; frameworks hold sequencing errors
experimental readout: polyreactivity (PSR sort gate)

# macromolecule sequence, test value
rows = [
    ("QVQLVESGGGLVQAGGRLRLSCAASGSIFFDYAMGWYRQAPGKERELVAAINSGGTTNYADSVKGRFTISRDNAKNTVYLQMKQPETGRYRGLLLQRLPGYIRWYRWYDYWGQGTQVTVSS", "low polyreactivity"),
    ("QVQLVESGGGLVQAGGSLRLSCAASGITFVSYTMGWYRQAPGKERELVAAISTSGGSTYYADSVKGRFTISRDNAKNTVYLQMNSLKPEDTAVYYCAARQVRTIRKYGYWGQGTQVTVSS", "high polyreactivity"),
    ("QVQLLESGGGLVQAGGTLRLSCSASGGIFVNYAMGWYRQAPGKERELVAAISRSGGSTYYADSVKGRFTISRDNAKNTVYLQLNSLKPEVTAVYYCNAVLQKYRFEYDYWGQGSQVTVSS", "high polyreactivity"),
    ("QVQLVESGGGLVQAGGSLRLSCSASGSIFGYYGMGLYRQAPGKERELVATISWSGDSTNYADSVKGRFTISRDNAKNTVYLQMNSLKPEDTAVYYCAAEWHAGWGGWLRYRHYEYWGQRTQVTVSS", "low polyreactivity"),
    ("QVQLVESGGGLVQAGGSLRLSCAASGFTIDNYAMGWYRHSPGKEMEVVAAINWSGDRMYYADSVKGRFTFSRDNAKNTVYLQMNSLKPEDTAVYYCAAPASRSQGPFPGYDYWGQGTQVTVSS", "high polyreactivity"),
    ("QVQLVESGGGFVQAGGSLRLSCAASGYIFGIYAMGWYRQAPGKERELVAAISTSGGSTYYADSVKGRFTISRDNAKNTVYLQMNSLKPEDTAVYYCARPTTYGYYYWGQGTQVTVSS", "high polyreactivity"),
    ("QVQLVETGGGLVQAGGSLRLSCAASGRTFAYNAMGWYRQAPGKARELVAAITGSGGRTYYADSVKGRFTISRDNAKNTVYLQMNSLKPEETAVYYCAAEGPEIKYYYWGQGTQVTVSL", "low polyreactivity"),
    ("QVQLQVSGGGLVNAGGSLRLSCAASGNISPRDAMGWYLQAPGEERDLVASNAYSAITYYADGVTGRSTISRDNAKNTEYLQMNSLKPEDTEVYYCAVYQFTYPVFPAYWGQGTQVTVSS", "low polyreactivity"),
    ("QVQLVESGGGLVQAGGSLRLSCAASGRIFRAYAMGWYRQAPGKERELVAAISYRGGSTYYADSVKGRFTISRDNAKNTVYLQMNSLKPEDTAVYYCAADSDRSVWIYGYSGQGTQVTVSS", "low polyreactivity"),
    ("QVQLVESGGGLVQAGGSLRLSCAASGFTFGFNAMGWYRQAPGKEREFVASITYRGGSTYYADSVKGRFTISRDNAKNTVYLQMNSLKPEDTAVYYCAAASPWRRYISDYWGQGTQVTVSS", "high polyreactivity"),
    ("QVQLVESGGGLVQAGGSLRLSCAASGSTFAQNTMGWYRQAPGKERELVATISDGGGSTYYADSVKGRFTISRDIAKNTVYLQMNSLKPEDTAVYYCNTDRFWPSDYWGQGTQVTVSS", "low polyreactivity"),
]

* * *

# assay procedure: yeast display, Sf9 membrane polyspecificity reagent, FACS + sequencing; frameworks hold sequencing errors

# macromolecule sequence, polyreactivity (PSR sort gate)
records = [
    ("QVQLVESGGGLVQAGGSLRLSCAASGSTFKPNVMGWYRPAPGKERELVAAITSTDDRTYYADSVKGRFTISRDNAKNTVYLQMNSLKPEDTAVYYCNRPYAWYGYIYNYWGQGTQVTVSS", "low polyreactivity"),
    ("QVQLVESGGGLVQAGGSLRLSCAASGSIFIAYTMGWYRQAPGKERELVAAISQSGGGTHYADSVKGRFTISRDNAKNTVYLQMNSLKPEDTAVYYCAADRPATSDYTGYDYWGQGTQVTVSS", "low polyreactivity"),
    ("QVQLVESGGGLVQAGGSLRLICAASGSIFPANVMGWYRQAPGKERELVAVISSSGGRTFYADSVKGRFTISRDNAKNTVYLQMNSLKPDDTAVYYCAATIYDYKRALKYYYWGLGTQVTVSS", "high polyreactivity"),
    ("QVQLVESGGGLVQAGGSLRLSCAASGITIVLYTMGWYRQAPGKEREFVAGITRGGSTYYADSVKGRFTISRDNAKNTVYLQMNSLKPEDTSVYYCAARPRFLRASVEYDYWGQGTQVTVSS", "high polyreactivity"),
    ("QVQLVESGGGLVQAGGSLRLSCAATGFTIAWYTMGWYRQAPGKERELVAAISLNGGSKYYADSVKGRFTISRDNAKNTVYLQMNSLKPDDTAVYYCAKGYRWPYYPYDYWGQGTQVTVSS", "low polyreactivity"),
    ("QVQLVESGGGLVQAGGSLRLSCAASGSIITWYAMGWYRQAPGKERELVAAISNSDSSTYYADSVKGRFTISRDNAKNTVYLQMNILKPEDTAVYYCAAEYGLAWYNFEHWGQGTQVTVSS", "high polyreactivity"),
    ("QVQLVESGGGLVQAGGRLRLTCAASGRIFYRYAMGWYRQAPGKERELVASITRSGITHYADSVKGRFTISRDNAKNTVYLQMNSLKPEDTAVYYCNARRGSPAPYDYWGKGTQVTVSS", "high polyreactivity"),
    ("QVQLVESGGGLVQAGGSLRLSCAASGRIFVGYAMGWYRQAPGKERELVAGIRYSGGSTYYADSVKGRFTISRDNAKNTVYLQMNSLKPEDTAVYYCANQVWHYAGRPNYKYDYWGQGTQVTVSS", "low polyreactivity"),
    ("QVQLVESGGGLVQAGGSLRLSCAASISSSNAMGWYRQAPGKERELVAAIRWSGTSTYYADSVKGRFTISRDNANNTVYLQMNSLKPEETAVYYCAARYVRVGYDYWGQGTQVTVSS", "high polyreactivity"),
    ("QVQLVESGGGLVQAGGSLRLSCAASGLIFRYKAMGWYRQAPGKERELVAAISRSRGTTYYADSVKGRFTISRDNAKNTVYLQMNSLKPEDTAVYYCATRISQSYYNYGYWGQGTQVTVSS", "high polyreactivity"),
    ("QVQLVESGGGLVQAGGSLRLSCAASGFIFYRYAMGWYRQAPGKERELVAAISRSGGSTYYADSVKGRFTISRDNAKNTVYLQMNSLKPEDTAVYYCAADRGSLAPGNDYWGQGTQVTVSS", "high polyreactivity"),
]

* * *

# assay procedure: yeast display, Sf9 membrane polyspecificity reagent, FACS + sequencing; frameworks hold sequencing errors
experimental readout: polyreactivity (PSR sort gate)

# macromolecule sequence, experimental readout, test value
data = [
    ("QVQLVESGGGLVQAGGSLRLSCAASGLTFKYNAMGWYRQAPGKERELVAGISWSTSSTYYADSVKGRFTISRDNAKNTVYLQMNSLKPEDTAVYYCAVYTITGRVLRQGPLYRHYYWGQGTQVTVSS", "polyreactivity (PSR sort gate)", "high polyreactivity"),
    ("QVQLVESGGGLVQAGGSLRLSCAASGSILAYNAMGWYRQAPGKEREFVAAITGGVGSTYYADSVKGRFTISRDNAKNTVYLQMNSLKPEDTAVYYCAKRTYHEYNNQFVKYYYWGQGTQVTVSS", "polyreactivity (PSR sort gate)", "high polyreactivity"),
    ("QVQLVESGGGLVQAGGSLRLSCAASGFTFWRNVMGWYRQAPGKERELVAVISRGGSTNYADSVKGRFTISRDNAKNTVYLQMNRLKPEDTAVYYCPKYARGPSKVDYWGQGTQVTVSS", "polyreactivity (PSR sort gate)", "high polyreactivity"),
]

* * *

# assay procedure: yeast display, Sf9 membrane polyspecificity reagent, FACS + sequencing; frameworks hold sequencing errors

# macromolecule sequence, polyreactivity (PSR sort gate)
data = [
    ("QVQLVESGGGLVQSGGSLRLSCAASGITFDHYAMGWYRQAPGKERELVAAISVSGGRTYYADSVKGRFTISRDNAKNTVYLQMNSLKPEDTAVYYCAKVSQVRGFYYWGQGTQVTVSS", "high polyreactivity"),
    ("QVQLVESGGGLVQAGGSLRLSCAASGSILYWYAMGWYRQAPGKERELVAGIDWSGGSTYYADSVKGRFTISRDNAKNTVYLQMNSLKPEDTAVYYCNAVQNRGRGSHRGESTYYYWGQGTQVTVSS", "low polyreactivity"),
    ("QVQLVESGGGLVQAGGSLRLSCAASGLIFVAYAMGWYRQAPGKERELVAAISRSGGSTYYADSVKGRFTISRDNAKNTVYLQMNRLKPEDTAVYFCAKYYGARHVDDDYWGQGTQVTVSS", "high polyreactivity"),
    ("QVQLVESGGGLVQAGGSLRLSCAASGRIFYSYAMGWYRQAPGKERELVAAIRRGGSTNYADSVKGRFTISRDNAKKTVYLQMNSLKPEDTAVYYCAAKGYKGYFLYNYWGQGTQVTVSS", "high polyreactivity"),
    ("QVQLVESGGGLVQAGGSLRLSCAASGRTFKDYAKGWYRHAPGKERELVARINGSGGSTYYADSVKGRFTISRDTAKNSVYLQMNSLKPEDTAVYYCGKDARRRTSILSGGRHYDYWGQGTQVTVSS", "low polyreactivity"),
    ("QVQLVESGGGLVQAGGSLRLSCAASGRIFRYYVMGWNRQAPGKERELVATITSGGSTNYADSVKGRFTISRDNAKNTVYLQMNSLKPEDTAVYYCAAEKVSGQGEMDYWGQGTQVTVSS", "low polyreactivity"),
    ("QVQLVESGGGLVQAGGSLRLSCAASGSTFANNAMGWYRQAPGKERELVAAISWSGGSTYYADSVKGRFTISRDNAKNTVYLQMNSLKPEDTAVYYCAADSPRYGGYGYWGQGTKVTVSS", "low polyreactivity"),
    ("QVQLVESGGGLVQAGGSLRLSCAASGRIFVRYTMGWYRQAPGKERELVAAITKRGGSTYYADSVKGRFTISRDNAKNTVYLQMNSLKPEDTAVYYCATDGLGYNRPQDEYWGQGTQVTVSS", "high polyreactivity"),
    ("QVQLGESGGGLVQAGRSLRLSCAASGSTIGPDAMGWYRQAPGTERELVAAIRYSSVRTYYADSVKGRFTISRDNAKNSVYVQMNSLKPEDTAVYYCNAVFWSYTVWGRSDYWGQGTQVTVSS", "low polyreactivity"),
    ("QVQLVESGGGLVQAGCSLRLSCAASGRIFYLYTLGWYRQAPGKERELVAAITRAGRTYYADSVKGRFTISRDNAKNTFYLQMNSLKPEDTGVYYCAAAFLSRVQGYDSWGQGTQVTVSS", "high polyreactivity"),
    ("QVQLVESGGGLVQAGGSLRLSCAASGRILYHYAMGWYRQAPGKERELVAAITFSGDTTYYADSVKGRFTISRDNAKNTVYLQMNSLKPVDTAVYYCNTVYYWNYVSRLYDYWGQGTQVTVSS", "high polyreactivity"),
]
